Molecular target: cDNA expressed human cytochrome P450 2E1 (CYP2E1) (Homo sapiens, UniProt P05181)
Conditions: tested concentration 33 μM
Measured Attribute: Inhibition of CYP 2E1 (%)
// note: answer is a bare numeric in %

{"Compound": "Oc1cc(O)c2c(c1)O[C@H](c1ccc(O)c(O)c1)[C@@H](O)C2 [(+)-Catechin]", "Assay Target": "cDNA expressed human cytochrome P450 2E1 (CYP2E1) (Homo sapiens, UniProt P05181)", "Inhibition of CYP 2E1 (%)": 33.83}
{"Compound": "Oc1cc(O)c2c(c1)O[C@H](c1ccc(O)c(O)c1)[C@H](O)C2 [(−)-Epicatechin]", "Assay Target": "cDNA expressed human cytochrome P450 2E1 (CYP2E1) (Homo sapiens, UniProt P05181)", "Inhibition of CYP 2E1 (%)": 15.02}
{"Compound": "O=c1cc(-c2ccccc2)oc2ccc3ccccc3c12", "Assay Target": "cDNA expressed human cytochrome P450 2E1 (CYP2E1) (Homo sapiens, UniProt P05181)", "Inhibition of CYP 2E1 (%)": 16.83}
{"Compound": "CCCCC[C@H](O)CC(=O)CCc1ccc(O)c(OC)c1", "Assay Target": "cDNA expressed human cytochrome P450 2E1 (CYP2E1) (Homo sapiens, UniProt P05181)", "Inhibition of CYP 2E1 (%)": 39.83}
{"Compound": "COc1c(O)cc(O)c2c(=O)cc(-c3ccccc3)oc12", "Assay Target": "cDNA expressed human cytochrome P450 2E1 (CYP2E1) (Homo sapiens, UniProt P05181)", "Inhibition of CYP 2E1 (%)": 21.87}

Next, consider the following compound.
Lookup: Bench note: what Inhibition of CYP 2E1 (%) did `COc1c(O)cc2oc(Oc3ccc(O)cc3)cc(=O)c2c1O` show?
Found: 60.54

###

Target: CYP2E1 (Homo sapiens)
Sequence (P05181 whole entry): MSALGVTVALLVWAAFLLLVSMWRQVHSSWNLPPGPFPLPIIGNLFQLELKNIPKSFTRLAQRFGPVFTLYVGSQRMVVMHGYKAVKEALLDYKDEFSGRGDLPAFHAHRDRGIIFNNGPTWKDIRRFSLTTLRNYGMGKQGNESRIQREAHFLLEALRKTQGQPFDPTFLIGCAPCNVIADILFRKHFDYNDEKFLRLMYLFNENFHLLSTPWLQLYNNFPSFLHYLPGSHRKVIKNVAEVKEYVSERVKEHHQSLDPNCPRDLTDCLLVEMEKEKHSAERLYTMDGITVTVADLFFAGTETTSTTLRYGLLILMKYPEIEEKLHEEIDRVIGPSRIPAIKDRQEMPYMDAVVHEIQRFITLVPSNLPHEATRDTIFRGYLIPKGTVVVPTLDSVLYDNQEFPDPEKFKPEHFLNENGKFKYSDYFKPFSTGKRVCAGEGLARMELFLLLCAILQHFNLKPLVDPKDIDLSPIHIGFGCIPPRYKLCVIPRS
Assay: Chlorzoxazone hydroxylation inhibition (6-OH-CZX by LC/MS/MS)
Settings: human, microsomes, pH 7.4
So basically: inhibition at 30 min, 16.5 µM at 40% or higher? That is label 1. Lower than 40%? That is label 0.

Reference set (5 entries):
{"Compound": "O=c1c(-c2ccc(O)cc2)coc2cc(O)cc(O)c12", "Category": "label 1"}
{"Compound": "O=C(CCc1ccc(O)cc1)c1c(O)cc(O)cc1O", "Category": "label 0"}
{"Compound": "COc1ccc(-c2cc(=O)c3c(O)cc(O[C@@H]4O[C@H](CO[C@@H]5O[C@@H](C)[C@H](O)[C@@H](O)[C@H]5O)[C@@H](O)[C@H](O)[C@H]4O)cc3o2)cc1O", "Category": "label 1"}
{"Compound": "CC(Cc1ccc(O)c(O)c1)C(C)Cc1ccc(O)c(O)c1 (stereo not drawn) [Nordihydroguaiaretic acid]", "Category": "label 1"}
{"Compound": "O=c1c(O)c(-c2ccc(O)c(O)c2)oc2cc(O)cc(O)c12", "Category": "label 1"}

Lookup: Please check the record CCCCCCCCCCCCCC(=O)OCC [Ethyl Myristate] and state if its inhibition at 30 min, 16.5 µM is at or above 40%.
Found: label 0

Lookup: Please check the record `O=C(O)c1cc(O)c(O)c(O)c1` and state if its inhibition at 30 min, 16.5 µM is at or above 40%.
Found: label 0
